The reported numbers originate from PubChem BioAssay (NCI).

# Tested on: EKVX NSCLC
# assay_notes: NCI tumour cell line growth inhibition, 48 h
Form field: TGI (one value per entry).

# compound, subject_of_test, TGI
records = [
    ("COC(=O)C(CC(=O)Nc1ccc(Cl)c(Cl)c1)C(=O)C(=O)Nc1ccc(Cl)c(Cl)c1 (stereo unspecified)", "EKVX NSCLC", "> 100 µM"),
    ("CCCCCC[C@@H](C)NC(=O)c1ccc(Nc2nc3ccccc3c3occc23)cc1", "EKVX NSCLC", "5.04 µM"),
    ("COC(=O)c1cn(CC(O)CCl)nn1 (stereo unspecified)", "EKVX NSCLC", "> 100 µM"),
    ("CCOC(=O)[C@@]1(C)CC(O)C(=O)N1C (stereo partly specified)", "EKVX NSCLC", "> 100 µM"),
    ("C=C(C)[C@H]1C2=CC(C)=C(O2)[C@@H](O)[C@H](C(=C)C)CCC2=C[C@H]1OC2=O", "EKVX NSCLC", "> 100 µM"),
    ("Cc1cc2n[n+]3[n-]cc(-c4ccccc4)n3c2cc1[N+](=O)[O-]", "EKVX NSCLC", "> 100 µM"),
    ("Cc1c(C)c(C)c(-n2c(=O)n(C)c(=O)n2-c2cc(C(C)(C)C)cc(C(C)(C)C)c2O)c(C)c1C", "EKVX NSCLC", "22.8 µM"),
    ("Nc1nc2cc(CC[C@H]3C[C@@H](n4ccc5c(N)ncnc54)[C@H](O)[C@@H]3O)ccc2cc1Br", "EKVX NSCLC", "22 µM"),
    ("COC(=O)Nc1nc2ccc(C(=O)c3ccccc3)cc2[nH]1", "EKVX NSCLC", "> 100 µM"),
    ("Cc1nc(N)nc(N)c1CCCc1ccccc1", "EKVX NSCLC", "> 100 µM"),
    ("CC(C)(C)NC(=O)/C(=C\\Sc1ccccc1)c1ccccc1", "EKVX NSCLC", "> 100 µM"),
    ("CCOC(=O)C(Cc1ccccc1)NC(=O)c1[nH]cnc1/N=N/N(C)C (stereo unspecified)", "EKVX NSCLC", "> 100 µM"),
    ("COC(=O)[C@]1(c2ccc(N(C)C)cc2OC)C[C@@H]2CCCN(CCc3c1[nH]c1ccccc31)C2", "EKVX NSCLC", "52 µM"),
    ("O=C(O)/C(=C\\c1ccc(O)cc1)c1cccc2ccccc12", "EKVX NSCLC", "> 100 µM"),
    ("CCN(CC)c1ccc(/C=C2\\CCc3ccc([N+](=O)[O-])cc3C2=O)cc1", "EKVX NSCLC", "> 100 µM"),
    ("O=C(N/N=C\\c1cccc2ccccc12)Nc1cccc2ccccc12", "EKVX NSCLC", "> 100 µM"),
]

###

Quick reference: TGI of the listed items.
# System: LOX IMVI melanoma
# assay_notes: NCI tumour cell line growth inhibition, 48 h
endpoint: TGI (µM)

# compound, endpoint_unit, inequality_sign, measured
data = [
    ("CO/N=C(\\C([O-])=N\\[n+]1cnn(CC(=O)OC(C)(C)C)c1)c1csc(NC(c2ccccc2)(c2ccccc2)c2ccccc2)n1", "µM", ">", 10),
    ("NC(N)=NC(N)=NCCCc1ccco1", "µM", "=", 121),
    ("CC(=O)/C=C/C1=C(c2csc3ccccc23)c2ccccc2CC1", "µM", "=", 48.4),
    ("COC(=O)[C@]1(c2cc3ccccc3[nH]2)CC2CN(C(=O)OCc3ccccc3)C1CC2=O (some centres not stated)", "µM", "=", 66.6),
    ("COC(=O)C1=C(C(=O)OC)C(N(C)C)C(C(=O)OC)=C(C(=O)OC)S1", "µM", ">", 100),
    ("COC(=O)C1=C(O)CCCC(C2CCCCC(=O)C2C(=O)OC)=C1 (configuration not stated)", "µM", ">", 100),
    ("CC(=O)C(C(C)=O)[C@@H]1OC(C)(C)O[C@@H]1[C@H]1COC(C)(C)O1", "µM", ">", 100),
    ("C=C1SC(=Nc2ccccc2Cl)N(C(=O)c2sc3ccccc3c2Cl)C12CCCCC2", "µM", ">", 100),
    ("O=C(C/C(=N/O)C(F)(F)F)c1cccs1", "µM", ">", 100),
    ("Cc1cc(Nc2ccc(NS(C)(=O)=O)cc2)c2c(ccc3nccc32)[nH]1", "µM", "=", 48.4),
    ("Nc1nc2cc(CC[C@H]3C[C@@H](n4ccc5c(N)ncnc54)[C@H](O)[C@@H]3O)ccc2cc1Br", "µM", "=", 22.6),
    ("O=c1c2cnccc2cc2c3ccccc3ccn12", "µM", ">", 100),
]
